Test system: NCI-H358
MEASUREMENT_NOTES: relative viability (nuclei count vs DMSO), 5 days (fraction); higher = more cells survive
CONDITION_DETAILS: first compound 8 µM
Please assign No whenever relative viability is at or above 0.2, and Yes whenever it is below.

COMPOUND	CATEGORY_LABEL
Nc1cccc2c1CN(C1CCC(=O)NC1=O)C2=O (stereo not given) [Lenalidomide] + Cc1cc(Nc2cc(N3CCN(C)CC3)nc(Sc3ccc(NC(=O)C4CC4)cc3)n2)n[nH]1 [Tozasertib] (partner 0.1 µM)	Yes
Nc1cccc2c1CN(C1CCC(=O)NC1=O)C2=O (stereo not given) [Lenalidomide] + Cc1nc(Nc2ncc(C(=O)Nc3c(C)cccc3Cl)s2)cc(N2CCN(CCO)CC2)n1 [Dasatinib] (partner 0.075 µM)	Yes
Nc1cccc2c1CN(C1CCC(=O)NC1=O)C2=O (stereo not given) [Lenalidomide] + C[C@@H](Oc1cc(-c2cnn(C3CCNCC3)c2)cnc1N)c1c(Cl)ccc(F)c1Cl [Crizotinib] (partner 1 µM)	No

Query :: Identify whether the compound Nc1cccc2c1CN(C1CCC(=O)NC1=O)C2=O (stereo not given) [Lenalidomide] + CC(=O)c1c(C)c2cnc(Nc3ccc(N4CCNCC4)cn3)nc2n(C2CCCC2)c1=O [Palbociclib] (partner 0.5 µM) records relative viability below 0.2.
Result :: Yes

Query :: Please answer likewise for Nc1cccc2c1CN(C1CCC(=O)NC1=O)C2=O (stereo not given) [Lenalidomide] + CC(=O)Nc1cccc(-n2c(=O)n(C3CC3)c(=O)c3c(Nc4ccc(I)cc4F)n(C)c(=O)c(C)c32)c1 [Trametinib] (partner 0.02 µM)
Result :: Yes

====

System: LOU-NH91
MEASUREMENT_NOTES: relative viability (nuclei count vs DMSO), 5 days (fraction); higher = more cells survive
CONDITION_DETAILS: first compound 0.003162 µM
ASSAY_METRIC: relative viability
Respond with the number and no other words.

Answered examples (2):
COMPOUND	relative viability
Cc1cn(-c2cc(NC(=O)c3ccc(C)c(Nc4nccc(-c5cccnc5)n4)c3)cc(C(F)(F)F)c2)cn1 [Nilotinib] + CC1(C)CCC(c2ccc(Cl)cc2)=C(CN2CCN(c3ccc(C(=O)NS(=O)(=O)c4ccc(N[C@H](CCN5CCOCC5)CSc5ccccc5)c(S(=O)(=O)C(F)(F)F)c4)cc3)CC2)C1 [Navitoclax] (partner 0.5 µM)	0.685
Cc1cn(-c2cc(NC(=O)c3ccc(C)c(Nc4nccc(-c5cccnc5)n4)c3)cc(C(F)(F)F)c2)cn1 [Nilotinib] + Nc1ncn([C@H]2C[C@H](O)[C@@H](CO)O2)c(=O)n1 [Decitabine] (partner 2 µM)	0.864

Query :: Need relative viability, item Cc1cn(-c2cc(NC(=O)c3ccc(C)c(Nc4nccc(-c5cccnc5)n4)c3)cc(C(F)(F)F)c2)cn1 [Nilotinib] + CS(=O)(=O)N1CCN(Cc2cc3nc(-c4cccc5[nH]ncc45)nc(N4CCOCC4)c3s2)CC1 [Pictilisib] (partner 1 µM)
Result :: 0.537

Query :: Please answer likewise for Cc1cn(-c2cc(NC(=O)c3ccc(C)c(Nc4nccc(-c5cccnc5)n4)c3)cc(C(F)(F)F)c2)cn1 [Nilotinib] + Cc1nc(NC(=O)N2CCC[C@H]2C(N)=O)sc1-c1ccnc(C(C)(C)C(F)(F)F)c1 [Alpelisib] (partner 2 µM)
Result :: 0.7

====

System: COR-L23
MEASUREMENT_NOTES: relative viability (nuclei count vs DMSO), 5 days (fraction); higher = more cells survive
CONDITION_DETAILS: first compound 0.1 µM
ASSAY_METRIC: relative viability
Respond with the number and no other words.

Answered examples (3):
COMPOUND	OBS_VALUE
Cc1cn(-c2cc(NC(=O)c3ccc(C)c(Nc4nccc(-c5cccnc5)n4)c3)cc(C(F)(F)F)c2)cn1 [Nilotinib] + O=C(CCCCCCC(=O)Nc1ccccc1)NO [Vorinostat] (partner 1 µM)	0.392
Cc1cn(-c2cc(NC(=O)c3ccc(C)c(Nc4nccc(-c5cccnc5)n4)c3)cc(C(F)(F)F)c2)cn1 [Nilotinib] + CS(=O)(=O)CCNCc1ccc(-c2ccc3ncnc(Nc4ccc(OCc5cccc(F)c5)c(Cl)c4)c3c2)o1 [Lapatinib] (partner 2 µM)	0.825
Cc1cn(-c2cc(NC(=O)c3ccc(C)c(Nc4nccc(-c5cccnc5)n4)c3)cc(C(F)(F)F)c2)cn1 [Nilotinib] + Cc1cc(Nc2cc(N3CCN(C)CC3)nc(Sc3ccc(NC(=O)C4CC4)cc3)n2)n[nH]1 [Tozasertib] (partner 0.1 µM)	0.126

Query :: Need relative viability, item Cc1cn(-c2cc(NC(=O)c3ccc(C)c(Nc4nccc(-c5cccnc5)n4)c3)cc(C(F)(F)F)c2)cn1 [Nilotinib] + Cc1nc(NC(=O)N2CCC[C@H]2C(N)=O)sc1-c1ccnc(C(C)(C)C(F)(F)F)c1 [Alpelisib] (partner 2 µM)
Result :: 0.791

Query :: Please answer likewise for Cc1cn(-c2cc(NC(=O)c3ccc(C)c(Nc4nccc(-c5cccnc5)n4)c3)cc(C(F)(F)F)c2)cn1 [Nilotinib] + CC1(C)CCC(c2ccc(Cl)cc2)=C(CN2CCN(c3ccc(C(=O)NS(=O)(=O)c4ccc(N[C@H](CCN5CCOCC5)CSc5ccccc5)c(S(=O)(=O)C(F)(F)F)c4)cc3)CC2)C1 [Navitoclax] (partner 0.5 µM)
Result :: 0.864

Query :: Please answer likewise for Cc1cn(-c2cc(NC(=O)c3ccc(C)c(Nc4nccc(-c5cccnc5)n4)c3)cc(C(F)(F)F)c2)cn1 [Nilotinib] + CCNC(=O)c1noc(-c2cc(C(C)C)c(O)cc2O)c1-c1ccc(CN2CCOCC2)cc1 [Luminespib] (partner 0.01 µM)
Result :: 0.535

Query :: Please answer likewise for Cc1cn(-c2cc(NC(=O)c3ccc(C)c(Nc4nccc(-c5cccnc5)n4)c3)cc(C(F)(F)F)c2)cn1 [Nilotinib] + CC(=O)c1c(C)c2cnc(Nc3ccc(N4CCNCC4)cn3)nc2n(C2CCCC2)c1=O [Palbociclib] (partner 0.5 µM)
Result :: 0.223

====

System: NCI-H1666
MEASUREMENT_NOTES: relative viability (nuclei count vs DMSO), 5 days (fraction); higher = more cells survive
CONDITION_DETAILS: first compound 0.6325 µM
ASSAY_METRIC: relative viability
Respond with the number and no other words.

Answered examples (2):
MOLECULE	OBS_VALUE
Cc1csc(=NC2CCCCC2)n1/N=C/c1ccc(O)c(O)c1O [MIM1] + CCNC(=O)c1noc(-c2cc(C(C)C)c(O)cc2O)c1-c1ccc(CN2CCOCC2)cc1 [Luminespib] (partner 0.01 µM)	1.13
Cc1csc(=NC2CCCCC2)n1/N=C/c1ccc(O)c(O)c1O [MIM1] + CC(=O)c1c(C)c2cnc(Nc3ccc(N4CCNCC4)cn3)nc2n(C2CCCC2)c1=O [Palbociclib] (partner 0.5 µM)	0.608

Now for another entry.
Query :: Need relative viability, item CN1CCN(CCOc2cc(OC3CCOCC3)c3c(Nc4c(Cl)ccc5c4OCO5)ncnc3c2)CC1 [Saracatinib] + CS(=O)(=O)CCNCc1ccc(-c2ccc3ncnc(Nc4ccc(OCc5cccc(F)c5)c(Cl)c4)c3c2)o1 [Lapatinib] (partner 2 µM)
Result :: 0.777

====

Tested on: NCI-H358
MEASUREMENT_NOTES: relative viability (nuclei count vs DMSO), 5 days (fraction); higher = more cells survive
CONDITION_DETAILS: first compound 0.253 µM
ASSAY_METRIC: relative viability
Respond with the number and no other words.

Answered examples (4):
MOLECULE	relative viability
Nc1cccc2c1CN(C1CCC(=O)NC1=O)C2=O (stereo not given) [Lenalidomide] + N=C(N)NC(=N)NCCc1ccccc1 [Phenformin] (partner 250 µM)	0.338
Nc1cccc2c1CN(C1CCC(=O)NC1=O)C2=O (stereo not given) [Lenalidomide] + NC(=O)Nc1cc(-c2cccc(F)c2)sc1C(=O)N[C@H]1CCCNC1 [AZD7762] (partner 0.2 µM)	0.521
Nc1cccc2c1CN(C1CCC(=O)NC1=O)C2=O (stereo not given) [Lenalidomide] + Cc1nc(NC(=O)N2CCC[C@H]2C(N)=O)sc1-c1ccnc(C(C)(C)C(F)(F)F)c1 [Alpelisib] (partner 2 µM)	0.902
Nc1cccc2c1CN(C1CCC(=O)NC1=O)C2=O (stereo not given) [Lenalidomide] + CS(=O)(=O)CCNCc1ccc(-c2ccc3ncnc(Nc4ccc(OCc5cccc(F)c5)c(Cl)c4)c3c2)o1 [Lapatinib] (partner 2 µM)	0.41

Now for another entry.
Query :: Need relative viability, item Nc1cccc2c1CN(C1CCC(=O)NC1=O)C2=O (stereo not given) [Lenalidomide] + COc1cc2c(Oc3ccc(NC(=O)C4(C(=O)Nc5ccc(F)cc5)CC4)cc3F)ccnc2cc1OCCCN1CCOCC1 [Foretinib] (partner 0.25 µM)
Result :: 0.47

====

Reported relative viability by item:
System: SK-LU-1
MEASUREMENT_NOTES: relative viability (nuclei count vs DMSO), 5 days (fraction); higher = more cells survive
CONDITION_DETAILS: first compound 0.1 µM
Respond with the number and no other words.

MOLECULE	relative viability
Cc1cn(-c2cc(NC(=O)c3ccc(C)c(Nc4nccc(-c5cccnc5)n4)c3)cc(C(F)(F)F)c2)cn1 [Nilotinib] + O=C(c1cc(Cc2n[nH]c(=O)c3ccccc23)ccc1F)N1CCN(C(=O)C2CC2)CC1 [Olaparib] (partner 8 µM)	0.444
Cc1cn(-c2cc(NC(=O)c3ccc(C)c(Nc4nccc(-c5cccnc5)n4)c3)cc(C(F)(F)F)c2)cn1 [Nilotinib] + C[C@]1(O)C[C@@H](c2nc(-c3ccc4ccc(-c5ccccc5)nc4c3)c3c(N)nccn32)C1 [Linsitinib] (partner 1 µM)	0.9
Cc1cn(-c2cc(NC(=O)c3ccc(C)c(Nc4nccc(-c5cccnc5)n4)c3)cc(C(F)(F)F)c2)cn1 [Nilotinib] + CCNC(=O)c1noc(-c2cc(C(C)C)c(O)cc2O)c1-c1ccc(CN2CCOCC2)cc1 [Luminespib] (partner 0.01 µM)	0.217
Cc1cn(-c2cc(NC(=O)c3ccc(C)c(Nc4nccc(-c5cccnc5)n4)c3)cc(C(F)(F)F)c2)cn1 [Nilotinib] + C[C@@H](Oc1cc(-c2cnn(C3CCNCC3)c2)cnc1N)c1c(Cl)ccc(F)c1Cl [Crizotinib] (partner 1 µM)	0.693
Cc1cn(-c2cc(NC(=O)c3ccc(C)c(Nc4nccc(-c5cccnc5)n4)c3)cc(C(F)(F)F)c2)cn1 [Nilotinib] + CS(=O)(=O)CCNCc1ccc(-c2ccc3ncnc(Nc4ccc(OCc5cccc(F)c5)c(Cl)c4)c3c2)o1 [Lapatinib] (partner 2 µM)	0.6

Now for another entry.
Query :: Need relative viability, item Cc1cn(-c2cc(NC(=O)c3ccc(C)c(Nc4nccc(-c5cccnc5)n4)c3)cc(C(F)(F)F)c2)cn1 [Nilotinib] + COc1cccc2cc(-c3nc([C@H]4CC[C@H](C(=O)O)CC4)n4ncnc(N)c34)[nH]c12 [OSI-027] (partner 0.5 µM)
Result :: 0.265
